# Test system: Porcine ovarian granulosa cells (POGC)
# procedure-text: Inhibition of SNP-induced apoptosis of porcine ovarian granulosa cells
# Assay type: cell-based
# run-conditions: SNP 0.5 mM; cells observed after 18 hours
# MEC (Minimum effective concentration for more than 95% of inhibition of cell death) per entry
// note: answer is a bare numeric in µM

Previously resolved entries follow.
| compound | value |
| --- | --- |
| Cn1cc(-c2c[nH]c3ccc(F)cc23)c(-c2c[nH]c3ccc(F)cc23)c1 [Compound 12] | 1 |
| Cc1ccc2[nH]cc(-c3cn(C)cc3-c3cn(C(=O)OC(C)(C)C)c4ccc(C)cc34)c2c1 [Compound 22] | 0.3 |
| Cn1cc(-c2c[nH]c3ccccc23)c(-c2c[nH]c3ccccc23)c1 [Compound 1] | 0.3 |

Could you now consider this next compound?
Qu. Looking for the measured MEC (Minimum effective concentration for more than 95% of inhibition of cell death) of COc1ccc2[nH]cc(-c3cn(C)cc3-c3c[nH]c4ccc(OC)cc34)c2c1 [Compound 13] , can you help?
Ans. 0.3

----------
Overview of reported MEC (Minimum effective concentration for more than 95% of inhibition of cell death) across a group of molecules:
# System: Porcine ovarian granulosa cells (POGC)
# procedure-text: Inhibition of SNP-induced apoptosis of porcine ovarian granulosa cells
# Format: cell-based
# run-conditions: SNP 0.5 mM; cells observed after 18 hours
Answer in µM, number only, no unit symbol.

The examples below pair each entry with its known result.
| molecule | assayed-system | measurement-units | value |
| --- | --- | --- | --- |
| CN(C)CCCn1cc(-c2cn(C)cc2-c2cn(CCCN(C)C)c3ccccc23)c2ccccc21 [Compound 7] | Porcine ovarian granulosa cells (POGC) | µM | 1 |
| Cn1cc(-c2cn(C(=O)OC(C)(C)C)c3ccccc23)c(-c2cn(C(=O)OC(C)(C)C)c3ccccc23)c1 [Compound 3] | Porcine ovarian granulosa cells (POGC) | µM | 10 |
| COc1ccc2c(c1)c(-c1cn(C)cc1-c1cn(C)c3ccc(OC)cc13)cn2C [Compound 14] | Porcine ovarian granulosa cells (POGC) | µM | 1 |
| Cc1[nH]c2ccccc2c1-c1cn(C)cc1-c1c(C)[nH]c2ccccc12 [Compound 11] | Porcine ovarian granulosa cells (POGC) | µM | 0.1 |

Now examine the next entry.
Qu. Give the measured MEC (Minimum effective concentration for more than 95% of inhibition of cell death) of c1ccc(Cn2cc(-c3c[nH]c4ccccc34)c(-c3c[nH]c4ccccc34)c2)cc1 [Compound 18] .
Ans. 0.3

----------
# Tested on: Porcine ovarian granulosa cells (POGC)
# procedure-text: Inhibition of SNP-induced apoptosis of porcine ovarian granulosa cells
# Format: cell-based
# run-conditions: SNP 0.5 mM; cells observed after 18 hours
# Description: Porcine ovaries were washed with PBS buffer, and Porcine ovarian granulosa cells (POGC) were collected by aspiration from follicles with a syringe. Cell fraction was recovered as a precipitate by centrifugation of the suspension. The operation of suspending the cell fraction into PBS buffer and subjecting the resulting suspension to centrifugation was repeated three times to wash the cells. […]
recorded-metric: MEC (Minimum effective concentration for more than 95% of inhibition of cell death) (µM)
The answer is to be given in µM; state only the numeric part.

| smiles-data | measurement-units | value |
| --- | --- | --- |
| Cc1ccc2c(c1)c(-c1cn(C)cc1-c1cn(CCCN)c3ccc(C)cc13)cn2C | µM | 0.1 |
| Cc1ccc2[nH]cc(-c3cn(C)cc3-c3c[nH]c4ccc(C)cc34)c2c1 | µM | 0.05 |
| Cn1cc(-c2c[nH]c3ccccc23)c(-c2cn(C(=O)OC(C)(C)C)c3ccccc23)c1 | µM | 0.3 |
| Cn1cc(-c2cn(C)c3ccccc23)c(-c2cn(C)c3ccccc23)c1 | µM | 0.3 |
| Cc1cccc2c(-c3cn(C)cc3-c3c[nH]c4c(C)cccc34)c[nH]c12 | µM | 0.03 |

Qu. Look up MEC (Minimum effective concentration for more than 95% of inhibition of cell death): `Cc1ccc2c(c1)c(-c1cn(C)cc1-c1cn(C(=O)OC(C)(C)C)c3ccc(C)cc13)cn2C(=O)OC(C)(C)C`
Ans. 10

Qu. # iterate: `Cn1cc(-c2cn(CCCN)c3ccccc23)c(-c2cn(CCCN)c3ccccc23)c1`
Ans. 0.1

Qu. // next record `Cn1cc(-c2c[nH]c3ccccc23)c(-c2cn(CCCN)c3ccccc23)c1`
Ans. 0.3

Qu. Do the same for `c1ccc(-n2cc(-c3c[nH]c4ccccc34)c(-c3c[nH]c4ccccc34)c2)cc1` please
Ans. 0.3

Qu. Record: `Cc1ccc2[nH]cc(-c3cn(C)cc3-c3cn(C)c4ccc(C)cc34)c2c1`
Ans. 0.1

Qu. // query: `Cn1cc(-c2c[nH]c3ccccc23)c(-c2cn(C)c3ccccc23)c1`
Ans. 0.3

Qu. Entry `CN(C)CCCn1cc(-c2cn(C)cc2-c2c[nH]c3ccccc23)c2ccccc21` please
Ans. 0.3

Data credit: patent US6589977B1
